targetOrTestSystem: T1, biotinylated PD1-ECD-AviHis (human, UniProt Q15116 25-170, biotinylated, site not stated)
T1 construct: also called huPD1; hu PD1
experimentNotes: ELISA on coated biotinylated PD1-ECD-AviHis
propertyName: pEC50
Conceptually, pEC50 converts a concentration in mol/L into minus its log10.

Reference set (3 entries):
binder	pEC50
PD1-0103-0315 (antibody, human IgG1, V domains shown, Humanized) VH: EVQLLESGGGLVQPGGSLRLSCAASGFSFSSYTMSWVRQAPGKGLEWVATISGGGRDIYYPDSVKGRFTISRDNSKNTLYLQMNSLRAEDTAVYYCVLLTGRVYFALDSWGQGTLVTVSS VL: EIVLTQSPATLSLSPGERATLSCRASESVDTSDNSFIHWYQQKPGQSPRLLIYRSSTLESGIPARFSGSGSGTDFTLTISSLEPEDFAVYYCQQNYDVPWTFGQGTKVEIK	10.22
chimeric PD1-0103 (antibody, human IgG1, V domains shown) VH: EVILVESGGGLVKPGGSLKLSCAASGFSFSSYTMSWVRQTPEKRLDWVATISGGGRDIYYPDSVKGRFTISRDNAKNTLYLEMSSLMSEDTALYYCVLLTGRVYFALDSWGQGTSVTVSS VL: KIVLTQSPASLPVSLGQRATISCRASESVDTSDNSFIHWYQQRPGQSPKLLIYRSSTLESGVPARFSGSGSRTDFTLTIDPVEADDVATYYCQQNYDVPWTFGGGTKLEIK	9.70
PD1-0103-0314 (antibody, human IgG1, V domains shown, Humanized) VH: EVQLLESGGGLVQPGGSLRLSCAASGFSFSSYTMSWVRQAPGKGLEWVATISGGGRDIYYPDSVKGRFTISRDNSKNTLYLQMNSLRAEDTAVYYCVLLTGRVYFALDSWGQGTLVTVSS VL: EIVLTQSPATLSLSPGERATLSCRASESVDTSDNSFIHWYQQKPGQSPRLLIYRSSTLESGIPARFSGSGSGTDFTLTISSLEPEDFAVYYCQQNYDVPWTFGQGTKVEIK	10.15

For the binder shown here, PD1-0103-0312 (antibody, human IgG1, V domains shown, Humanized) VH: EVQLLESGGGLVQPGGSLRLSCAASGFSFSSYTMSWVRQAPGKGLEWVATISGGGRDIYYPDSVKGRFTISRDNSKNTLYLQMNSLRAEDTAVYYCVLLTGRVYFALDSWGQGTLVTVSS VL: DIVMTQSPDSLAVSLGERATINCKASESVDTSDNSFIHWYQQKPGQSPKLLIYRSSTLESGVPDRFSGSGSGTDFTLTISSLQAEDVAVYYCQQNYDVPWTFGQGTKVEIK , give the reported pEC50.
10.00
